System: HEK293
Test: Selectivity ratio of IC50 for C-terminal HA-tagged human MC4-R stably expressed in HEK293 cells co-expressing GScAMP22P cAMP reporter assessed as inhibition of alpha-MSH induced cAMP production to IC50 for C-terminal HA-tagged human MC1-R stably expressed in HEK293 cells co-expressing GScAMP22P cAMP reporter assessed as inhibition of alpha-MSH induced cAMP production
Type: cell-based

{"columns": ["COMPOUND", "Ratio IC50"],
 "data": [
  ["CCCCC(NC(C)=O)C(=O)N[C@H]1CC(=O)NCCCC[C@@H](C(N)=O)NC(=O)CNC(=O)[C@H](Cc2c[nH]c3ccccc23)NC(=O)[C@H](CCCNC(=N)N)NC(=O)[C@@H](Cc2ccc3ccccc3c2)NC(=O)[C@@H]2C[C@@H](n3cc(C(C)(C)N)nn3)CN2C1=O (some centres not stated)", 0.4],
  ["CCCCC(NC(C)=O)C(=O)N[C@H]1CC(=O)NCCCC[C@@H](C(N)=O)NC(=O)CNC(=O)[C@H](Cc2c[nH]c3ccccc23)NC(=O)[C@H](CCCNC(=N)N)NC(=O)[C@@H](Cc2ccc3ccccc3c2)NC(=O)[C@@H]2C[C@@H](n3cc(CCCNC(=N)N)nn3)CN2C1=O (some centres not stated)", 0.1],
  ["CCCC[C@H](NC(C)=O)C(=O)N[C@H]1CC(=O)NCCCC[C@@H](C(N)=O)NC(=O)CNC(=O)[C@H](Cc2c[nH]c3ccccc23)NC(=O)[C@H](CCCNC(=N)N)NC(=O)[C@@H](Cc2ccc3ccccc3c2)NC(=O)[C@@H]2C[C@H](n3cc(CCC(=O)O)nn3)CN2C1=O", 20.8],
  ["CCCC[C@H](NC(C)=O)C(=O)N[C@H]1CC(=O)NCCCC[C@@H](C(N)=O)NC(=O)CNC(=O)[C@H](Cc2c[nH]c3ccccc23)NC(=O)[C@H](CCCNC(=N)N)NC(=O)[C@@H](Cc2ccc3ccccc3c2)NC(=O)[C@@H]2C[C@H](NC(=O)[C@@H](N)CCCN)CN2C1=O", 0.1],
  ["CCCC[C@H](NC(C)=O)C(=O)N[C@H]1CC(=O)NCCCC[C@@H](C(N)=O)NC(=O)CNC(=O)[C@H](Cc2c[nH]c3ccccc23)NC(=O)[C@H](CCCNC(=N)N)NC(=O)[C@@H](Cc2ccc3ccccc3c2)NC(=O)[C@@H]2C[C@H](NC(=O)CC3CCCCC3)CN2C1=O", 1.8],
  ["CCCC[C@H](NC(C)=O)C(=O)N[C@H]1CC(=O)NCCCC[C@@H](C(N)=O)NC(=O)CNC(=O)[C@H](Cc2c[nH]c3ccccc23)NC(=O)[C@H](CCCNC(=N)N)NC(=O)[C@@H](Cc2ccc3ccccc3c2)NC(=O)[C@@H]2C[C@H](n3cc(CCN)nn3)CN2C1=O", 0.4],
  ["CCCC[C@H](NC(C)=O)C(=O)N[C@H]1CC(=O)NCCCC[C@@H](C(N)=O)NC(=O)CNC(=O)[C@H](Cc2c[nH]c3ccccc23)NC(=O)[C@H](CCCNC(=N)N)NC(=O)[C@@H](Cc2ccc3ccccc3c2)NC(=O)[C@@H]2C[C@H](n3cc(-c4ccccn4)nn3)CN2C1=O", 30.1]
]}

* * *

Biological target: Melanocortin receptor 3 (Homo sapiens, UniProt P41968)
Sequence (P41968 whole entry): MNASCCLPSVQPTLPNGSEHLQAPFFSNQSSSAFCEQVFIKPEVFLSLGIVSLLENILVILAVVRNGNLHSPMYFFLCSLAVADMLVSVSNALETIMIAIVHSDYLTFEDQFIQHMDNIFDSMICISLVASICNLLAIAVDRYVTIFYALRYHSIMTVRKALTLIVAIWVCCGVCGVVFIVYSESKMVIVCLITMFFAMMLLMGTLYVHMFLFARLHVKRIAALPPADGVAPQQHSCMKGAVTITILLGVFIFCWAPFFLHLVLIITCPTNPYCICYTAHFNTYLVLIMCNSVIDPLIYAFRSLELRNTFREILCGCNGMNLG
Assay: Antagonist activity at C-terminal HA-tagged human MC3-R stably expressed in HEK293 cells co-expressing GScAMP22P cAMP reporter assessed as inhibition of alpha-MSH induced cAMP production by cell based luminescence assay
Assay type: functional
Conditions: read-out: IC50

{"columns": ["ITEM SMILES", "IC50, nM"],
 "data": [
  ["CCCC[C@H](NC(C)=O)C(=O)N[C@H]1CC(=O)NCCCC[C@@H](C(N)=O)NC(=O)CNC(=O)[C@H](Cc2c[nH]c3ccccc23)NC(=O)[C@H](CCCNC(=N)N)NC(=O)[C@@H](Cc2ccc3ccccc3c2)NC(=O)[C@@H]2C[C@H](NC(=O)[C@@H](N)CCCN)CN2C1=O", 8.96],
  ["CCCC[C@H](NC(C)=O)C(=O)N[C@H]1CC(=O)NCCCC[C@@H](C(N)=O)NC(=O)CNC(=O)[C@H](Cc2c[nH]c3ccccc23)NC(=O)[C@H](CCCN=C(N)N)NC(=O)[C@@H](Cc2ccc3ccccc3c2)NC(=O)[C@@H]2CCCN2C1=O", 5.08],
  ["CCCC[C@H](NC(C)=O)C(=O)N[C@H]1CC(=O)NCCCC[C@@H](C(N)=O)NC(=O)CNC(=O)[C@H](Cc2c[nH]c3ccccc23)NC(=O)[C@H](CCCNC(=N)N)NC(=O)[C@@H](Cc2ccc3ccccc3c2)NC(=O)[C@@H]2C[C@H](NC(=O)CC3CCCCC3)CN2C1=O", 9.3],
  ["CCCC[C@H](NC(C)=O)C(=O)N[C@H]1CC(=O)NCCCC[C@@H](C(N)=O)NC(=O)CNC(=O)[C@H](Cc2c[nH]c3ccccc23)NC(=O)[C@H](CCCNC(=N)N)NC(=O)[C@@H](Cc2ccc3ccccc3c2)NC(=O)[C@@H]2C[C@H](n3cc(C(C)(C)N)nn3)CN2C1=O", 34.3]
]}
